These measurements were taken from paper PMC5339894.

B1: mAb G196 [mouse] / biotin-SGSGSDLVPRG [modified: biotin on the N-terminus; biotin on the N-terminus] (parent complex)
chain 1: QVKLQESGAELVKPGASVKLSCKASGYTFTNYWMHWVKLRPGQGFEWIGEINPSNGGSNYNEKFKRKATLTVDKSSSTAYMQLSSLTSEDSAVFYCSIWDSYFDYWGQGTTLTVSSAKTTPPSVYPLAPGSAAQTNSMVTLGCLVKGYFPEPVTVTWNSGSLSSGVHTFPAVLQSDLYTLSSSVTVPSSPWPSETVTCNVAHPASSTKVDKKIVPRDC
chain 2: NIVMTQSPKSMSMSVGERVTLTCKASENVVTYVSWYQQKPEQSPKLLIYGASNRYTGVPDRFTGSGSATDFTLTISSVQAEDLADYHCGQGYSYPYTFGGGTKLEIKRADAAPTVSIFPPSSEQLTSGGASVVCFLNNFYPKDINVKWKIDGSERQNGVLNSWTDQDSKDSTYSMSSTLTLTKDEYERHNSYTCEATHKTSTSPIVKSFNRNEC
chain 3: SGSGSDLVPRG

- Variants of: B1
- experimental.details: permutation ELISA (densitometry of spots); parent: 1; read off a plot
property.name: ratio to parent

chain 3 D6A; ~0.38
chain 3 D6Q; ~0.48
chain 3 D6Y; ~0.11
chain 3 P9R; ~0.74
chain 3 D6C; ~0.26
chain 3 P9A; ~0.98

What value of measured ratio to parent is listed for chain 3 L7V ?
~0.11

What value of measured ratio to parent is listed for chain 3 D6F ?
~0.09

What value of measured ratio to parent is listed for chain 3 D6V ?
~0.04

What value of measured ratio to parent is listed for chain 3 L7K ?
~0.1

What value of measured ratio to parent is listed for chain 3 D6T ?
~0.19
